System: CHEAL (Lambsquarters, Common)
experiment notes: Postemergence herbicidal evaluation
Type: in vivo, Chenopodium album
condition context: postemergence, rate 0.0156 kg/ha
Reported Herbicidal rating CHEAL values for a set of molecules
measured quantity: Herbicidal rating CHEAL

[[record]]
molecule = "CCOC(=O)CN1C(=O)C(C(=O)OC)SC1=Nc1cc(-n2c(=O)cc(C(F)(F)F)n(C)c2=O)c(F)cc1Cl (stereo not shown)"
measured_quantity = "Herbicidal rating CHEAL"
result_number = 4.0

[[record]]
molecule = "COc1cc(CN2C(=O)CSC2=Nc2cc(-n3c(=O)cc(C(F)(F)F)n(C)c3=O)c(F)cc2Cl)cc(OC)c1OC"
measured_quantity = "Herbicidal rating CHEAL"
result_number = 3.0

[[record]]
molecule = "CCOC(=O)CN1C(=O)C(COC)SC1=Nc1cc(-n2c(=O)cc(C(F)(F)F)n(C)c2=O)c(F)cc1Cl (stereo not shown)"
measured_quantity = "Herbicidal rating CHEAL"
result_number = 9.0

[[record]]
molecule = "Cn1c(C(F)(F)F)cc(=O)n(-c2cc(N=C3SCC(=O)N3Cc3ccc(Cl)c(Cl)c3)c(Cl)cc2F)c1=O"
measured_quantity = "Herbicidal rating CHEAL"
result_number = 7.0


* * *

Tested on: ECHCG (Barnyardgrass)
experiment notes: Preemergence herbicidal evaluation
Format: in vivo, Echinochloa crus-galli
condition context: 0.0156 kg/ha, rated 4-5 weeks after treatment
measured quantity: Preemergence herbicidal rating ECHCG

[[record]]
compound = "COCCCN1C(=O)CSC1=Nc1cc(-n2c(=O)cc(C(F)(F)F)n(C)c2=O)c(F)cc1Cl"
result_number = 4.0

[[record]]
compound = "CC(C)N1C(=O)CSC1=Nc1cc(-n2c(=O)cc(C(F)(F)F)n(C)c2=O)c(F)cc1Cl"
result_number = 0.0

[[record]]
compound = "CCOC(=O)CN1C(=O)C(OC)SC1=Nc1cc(-n2c(=O)cc(C(F)(F)F)n(C)c2=O)c(F)cc1Cl (stereo not shown)"
result_number = 0.0

[[record]]
compound = "CCOC(=O)CN1C(=O)C(C(=O)OC(C)(C)C)SC1=Nc1cc(-n2c(=O)cc(C(F)(F)F)n(C)c2=O)c(F)cc1Cl (stereo not shown)"
result_number = 0.0


* * *

Reported TRZAWR herbicidal rating values for a set of molecules
Tested on: TRZAWR (Wheat, Winter, cv Riband)
experiment notes: Postemergence herbicidal evaluation
Format: in vivo, Triticum aestivum
condition context: postemergence, rate 0.1250 kg/ha
measured quantity: TRZAWR herbicidal rating

[[record]]
molecule = "CC(C)OC(=O)CC1SC(=Nc2cc(-n3c(=O)cc(C(F)(F)F)n(C)c3=O)c(F)cc2Cl)N(C)C1=O (centres unmarked)"
result_number = 7.0

[[record]]
molecule = "C=CCN1C(=O)C(CC(=O)OCCF)SC1=Nc1cc(-n2c(=O)cc(C(F)(F)F)n(C)c2=O)c(F)cc1Cl (centres unmarked)"
result_number = 8.5

[[record]]
molecule = "CCOC(=O)CN1C(=O)C(CC(=O)O)S/C1=N/c1cc(-n2c(=O)cc(C(F)(F)F)n(C)c2=O)c(F)cc1Cl (centres unmarked)"
result_number = 7.9

[[record]]
molecule = "CCOC(=O)CN1C(=O)C(CC(=O)NOC)SC1=Nc1cc(-n2c(=O)cc(C(F)(F)F)n(C)c2=O)c(F)cc1Cl (centres unmarked)"
result_number = 6.5

[[record]]
molecule = "CCC1SC(=Nc2cc(N3C(=O)C4=C(CCCC4)C3=O)c(F)cc2Cl)N(C)C1=O (centres unmarked)"
result_number = 3.0

